Biological target: recombinant human aromatase (Homo sapiens, UniProt P11511)
Sequence (P11511 whole entry): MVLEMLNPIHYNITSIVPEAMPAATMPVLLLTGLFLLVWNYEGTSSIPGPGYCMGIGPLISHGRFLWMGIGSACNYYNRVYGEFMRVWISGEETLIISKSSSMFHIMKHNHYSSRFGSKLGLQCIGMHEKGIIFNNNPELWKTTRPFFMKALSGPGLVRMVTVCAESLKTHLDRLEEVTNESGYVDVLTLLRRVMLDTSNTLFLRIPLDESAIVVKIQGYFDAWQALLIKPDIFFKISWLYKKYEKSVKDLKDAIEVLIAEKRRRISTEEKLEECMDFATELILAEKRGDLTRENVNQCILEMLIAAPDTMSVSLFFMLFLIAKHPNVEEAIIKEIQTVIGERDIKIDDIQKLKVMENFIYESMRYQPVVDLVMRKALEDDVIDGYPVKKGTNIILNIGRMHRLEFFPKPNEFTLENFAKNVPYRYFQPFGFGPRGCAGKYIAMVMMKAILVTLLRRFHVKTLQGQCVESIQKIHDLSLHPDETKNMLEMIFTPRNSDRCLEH
Experiment: Aromatization by recombinant human aromatase (CYP19+P450 reductase Supersomes)
Conditions: 10 μM, 37° C., 60 min
Entries and their % remaining at 60 min
Reply with the number and its unit after it.

In the examples that follow, each entry is paired with its recorded % remaining at 60 min.
% remaining at 60 min recorded for this compound, C[C@]12CC[C@H]3[C@@H](CCC4=CC(=O)CC[C@@]43C)[C@@H]1CC[C@@H]2O [Testosterone, reference compound] , is 0.1%

The reported value for CC1CC2=CC(=O)CCC2(C)C2CCC3(C)C(O)CCC3C12 (stereo not drawn) in terms of % remaining at 60 min is 3.4%

# compound C[C@@H]1CC2=CC(=O)CC[C@@H]2[C@@H]2[C@@H]1[C@@H]1CC[C@H](O)[C@@]1(C)C[C@@H]2C [CDB-1321, dimethandrolone, reference compound] ; its % remaining at 60 min = 85.3%

Continuing:
Kindly note the recorded % remaining at 60 min for CC[C@@H]1CC2=CC(=O)CC[C@]2(C)C2CC[C@@]3(C)C(CC[C@@H]3O)C21 (stereo partly drawn) , which is 0.1%

The recorded % remaining at 60 min for entry C[C@@H]1CC2CC(=O)CC[C@]2(C)C2CC[C@@]3(C)C(CC[C@@H]3O)C21 (stereo partly drawn) [CDB-4922, 7α-methyldihydro testosterone] equals 10.1%

The compound listed as CCC1CC2=CC(=O)CCC2(C)C2CCC3(C)C(O)CCC3C12 (stereo not drawn) shows % remaining at 60 min equal to 0.3%

The compound identified as CC12CCC(=O)C=C1CC(c1ccccc1)C1C2CCC2(C)C(O)CCC12 (stereo not drawn) [CDB-4920, 7α-Phenyl Testosterone] registered its % remaining at 60 min at 63.6%

// % remaining at 60 min lookup, compound = C[C@@H]1CC2=CC(=O)CC[C@]2(C)C2CC[C@@]3(C)C(CC[C@@H]3O)C21 (stereo partly drawn) , result: 0.1%

The measured % remaining at 60 min associated with CC12CCC(=O)C=C1CC(c1ccccc1)C1C2CCC2(C)C(O)CCC12 (stereo not drawn) [CDB-4921, 7β-Phenyl Testosterone] reads 62.5%

* * *

Molecular target: full-length, untagged, human estrogen receptors (ERα) (Homo sapiens)
Construct: insect cell-expressed, full-length, untagged, human estrogen receptors; purchased Life Technologies (Carlsbad, Calif.); host or cells: insect cells
Sequence (P03372 whole entry): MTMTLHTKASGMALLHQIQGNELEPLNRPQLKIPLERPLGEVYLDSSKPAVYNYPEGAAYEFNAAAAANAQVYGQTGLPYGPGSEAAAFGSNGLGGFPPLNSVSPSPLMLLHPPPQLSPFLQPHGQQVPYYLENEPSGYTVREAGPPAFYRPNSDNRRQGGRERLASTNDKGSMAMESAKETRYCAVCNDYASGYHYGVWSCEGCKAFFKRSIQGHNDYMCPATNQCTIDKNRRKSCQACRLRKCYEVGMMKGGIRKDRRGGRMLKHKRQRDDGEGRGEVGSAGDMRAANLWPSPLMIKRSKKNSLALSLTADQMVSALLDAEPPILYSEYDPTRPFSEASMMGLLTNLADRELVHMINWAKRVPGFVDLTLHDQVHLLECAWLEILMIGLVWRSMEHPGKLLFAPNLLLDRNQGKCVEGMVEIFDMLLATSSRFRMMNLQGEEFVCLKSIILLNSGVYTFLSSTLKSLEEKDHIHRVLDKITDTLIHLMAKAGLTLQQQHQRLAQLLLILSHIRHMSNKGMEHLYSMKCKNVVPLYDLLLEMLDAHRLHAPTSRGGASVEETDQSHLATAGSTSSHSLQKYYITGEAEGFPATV
Experiment: ERα fluorescence polarization (FP) binding assay
Listing: pIC50 of selected compounds
Quick note: pIC50 values are minus log10 of concentrations in mol/L.

Some compounds with known pIC50 results, for comparison:
Per the records, this compound ( C[C@@H]1CC2CC(=O)CC[C@]2(C)C2CC[C@@]3(C)C(CC[C@@H]3O)C21 (stereo partly drawn) [CDB-4922, 7α-methyldihydro testosterone] ) has pIC50 equal to 4.58

So for CC[C@@H]1CC2=CC(=O)CC[C@]2(C)C2CC[C@@]3(C)C(CC[C@@H]3O)C21 (stereo partly drawn) [CDB-4918, 7α-ethyl testosterone] , the logged pIC50 turned out to be 4.98

Next:
For reference, reported pIC50 for CC12CCC(=O)C=C1CC(c1ccccc1)C1C2CCC2(C)C(O)CCC12 (stereo not drawn) [CDB-4920, 7α-Phenyl Testosterone] stands at 4.87

// sample C[C@@H]1CC2=CC(=O)CC[C@]2(C)C2CC[C@@]3(C)C(CC[C@@H]3O)C21 (stereo partly drawn) [CDB-4910, 7α-methyl testosterone] , its pIC50 was 5.11

* * *

Target: recombinant human aromatase (Homo sapiens)
Assay: Aromatization by recombinant human aromatase (CYP19+P450 reductase Supersomes)
Settings: 10 μM, 37° C., 15 min
Cut-off 60% on % remaining at 15 min: below means satisfied, at or above means not satisfied.

Worked examples follow.
Dear reviewer, please state whether CC[C@@H]1CC2=CC(=O)CC[C@]2(C)C2CC[C@@]3(C)C(CC[C@@H]3O)C21 (stereo partly drawn) has % remaining at 15 min strictly beneath 60%.
satisfied

In plain terms, does C[C@@H]1CC2CC(=O)CC[C@]2(C)C2CC[C@@]3(C)C(CC[C@@H]3O)C21 (stereo partly drawn) [CDB-4922, 7α-methyldihydro testosterone] come in under 60% for % remaining at 15 min?
not satisfied

Please let me know if C[C@@H]1CC2=CC(=O)CC[C@]2(C)C2CC[C@@]3(C)C(CC[C@@H]3O)C21 (stereo partly drawn) shows % remaining at 15 min below 60%.
satisfied

Lab note: % remaining at 15 min threshold 60%. Does this compound come in strictly under it? CC1CC2=CC(=O)CCC2(C)C2CCC3(C)C(O)CCC3C12 (stereo not drawn)
not satisfied

Turning now to a further compound:
Please indicate whether the reported % remaining at 15 min of C[C@]12CC[C@H]3[C@@H](CCC4=CC(=O)CC[C@@]43C)[C@@H]1CC[C@@H]2O [Testosterone, reference compound] is strictly below 60%.
satisfied

* * *

Assay: Liver S9 Fraction Stability Assay
Details: human liver S9, W/O NADPH, 10 μM
Recorded % parent molecule remaining after 2 hours at 37° C. values for a group of compounds are listed next.
Only the number, expressed in %, is required.

For CCCCCCCCCCCCOC(=O)O[C@H]1CCC2C3CCC4=CC(=O)CCC4=C3[C@@H](C)C[C@@]21C (stereo partly shown) [CDB-4892] the compound record lists % parent molecule remaining after 2 hours at 37° C. as 77

Others:
So for C#C[C@]1(OC(=O)CCCCCCCCCCC)CCC2C3CCC4=CC(=O)CCC4C3CC[C@@]21CC (stereo partly shown) [CDB-4880] , the logged % parent molecule remaining after 2 hours at 37° C. turned out to be 86

Record summary for CCCCCCCCCCCCOC(=O)O[C@H]1CCC2C3CCC4=CC(=O)CC[C@]4(C)C3CC[C@@]21C (stereo partly shown) [CDB-4883, testosterone dodecylcarbonate] : reported % parent molecule remaining after 2 hours at 37° C. = 84

* * *

Target: recombinant human aromatase (Homo sapiens)
Test: Aromatization by recombinant human aromatase (CYP19+P450 reductase Supersomes)
Details: 10 μM, 37° C., 30 min
test-readout: % remaining at 30 min (%)
Give just the number in %; leave the unit off.

Tested on recombinant human aromatase (Homo sapiens), the item CC[C@@H]1CC2=CC(=O)CC[C@]2(C)C2CC[C@@]3(C)C(CC[C@@H]3O)C21 (stereo partly drawn) [CDB-4918, 7α-ethyl testosterone] showed % remaining at 30 min equal to 0.2

So the reported % remaining at 30 min for CCC1CC2=CC(=O)CCC2(C)C2CCC3(C)C(O)CCC3C12 (stereo not drawn) [CDB-4924, 7β-ethyl testosterone] , on recombinant human aromatase (Homo sapiens), turned out to be 25.4

Record C[C@]12CC[C@H]3[C@@H](CCC4=CC(=O)CC[C@@]43C)[C@@H]1CC[C@@H]2O [Testosterone, reference compound] ; system recombinant human aromatase (Homo sapiens); % remaining at 30 min = 0.1

The molecule CC1CC2=CC(=O)CCC2(C)C2CCC3(C)C(O)CCC3C12 (stereo not drawn) [CDB-4911, 7β-methyl testosterone] , when measured on recombinant human aromatase (Homo sapiens), yielded % remaining at 30 min of 33.5

Next:
// assay recombinant human aromatase (Homo sapiens), entry C[C@@H]1CC2CC(=O)CC[C@]2(C)C2CC[C@@]3(C)C(CC[C@@H]3O)C21 (stereo partly drawn) [CDB-4922, 7α-methyldihydro testosterone] , % remaining at 30 min value = 38.0

Item C[C@@H]1CC2=CC(=O)CC[C@]2(C)C2CC[C@@]3(C)C(CC[C@@H]3O)C21 (stereo partly drawn) [CDB-4910, 7α-methyl testosterone] was tested on recombinant human aromatase (Homo sapiens); the reported % remaining at 30 min is 20.2

* * *

Target: human full-length androgen receptor (Homo sapiens)
Sequence (P10275 1-920): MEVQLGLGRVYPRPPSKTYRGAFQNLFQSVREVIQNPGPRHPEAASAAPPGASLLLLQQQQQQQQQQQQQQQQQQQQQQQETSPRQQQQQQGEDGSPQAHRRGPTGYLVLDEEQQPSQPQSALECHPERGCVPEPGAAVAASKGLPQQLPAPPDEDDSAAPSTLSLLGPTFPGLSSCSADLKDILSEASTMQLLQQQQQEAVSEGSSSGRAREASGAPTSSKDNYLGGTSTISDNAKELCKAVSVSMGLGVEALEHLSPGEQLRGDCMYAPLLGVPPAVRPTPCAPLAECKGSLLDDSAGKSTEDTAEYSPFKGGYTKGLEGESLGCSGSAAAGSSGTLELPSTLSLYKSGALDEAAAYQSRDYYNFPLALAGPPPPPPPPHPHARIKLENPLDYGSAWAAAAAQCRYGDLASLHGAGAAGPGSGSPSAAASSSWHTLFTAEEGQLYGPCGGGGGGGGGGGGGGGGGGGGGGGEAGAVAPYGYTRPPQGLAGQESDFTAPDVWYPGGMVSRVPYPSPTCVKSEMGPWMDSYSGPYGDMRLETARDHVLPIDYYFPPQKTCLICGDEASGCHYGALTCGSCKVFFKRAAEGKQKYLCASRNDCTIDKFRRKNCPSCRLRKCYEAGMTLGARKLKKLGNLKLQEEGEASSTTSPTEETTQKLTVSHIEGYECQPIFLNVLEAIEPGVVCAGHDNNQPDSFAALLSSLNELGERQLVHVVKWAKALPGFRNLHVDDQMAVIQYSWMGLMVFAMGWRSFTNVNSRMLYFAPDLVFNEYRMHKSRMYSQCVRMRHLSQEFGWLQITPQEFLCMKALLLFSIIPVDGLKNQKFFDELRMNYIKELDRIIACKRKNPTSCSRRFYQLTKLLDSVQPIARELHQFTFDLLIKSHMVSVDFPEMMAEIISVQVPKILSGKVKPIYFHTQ
Assay: AR Transactivation Assay (MMTV-luciferase, HEC-1-B cells)
Format: cell-based
Each item that follows carries a reported EC50.
Reply with just the number (in nM).

# CC1CC2(C)C(O)CCC2C2C(C)Cc3cc(O)ccc3C12 (centres unmarked) with human full-length androgen receptor (Homo sapiens): EC50 is 3.68

Next:
Given the molecule CC1Cc2cc(O)ccc2C2CCC3(C)C(O)CCC3C12 (centres unmarked) and test system human full-length androgen receptor (Homo sapiens), the measured EC50 is 39
